melting point values, listed per item

Below, each entry is followed by its recorded melting point result.
Problem: Fill in the blank: the reported melting point of O=c1c(NCCNc2cc(N3CCCC3)nc(N3CCCC3)n2)c(N2CCOCC2)c1=O is ____.
Solution: 242 to 244 °C

Problem: I have this molecule here, O=C(O)/C=C\C(=O)O.O=c1c(NCCNc2cc(N3CCCC3)nc(N3CCCC3)n2)c(Nc2ccc(Cl)cc2)c1=O , and I need its recorded melting point.
Solution: 248 to 250 °C

Problem: Reported melting point for Cl.NCCc1ccc(Nc2c(NCCNc3cc(N4CCCC4)nc(N4CCCC4)n3)c(=O)c2=O)cc1 : what is it?
Solution: 250 to 252 °C

Problem: Any idea what its melting point is? The molecule is Cl.NCc1ccc(Nc2c(NCCNc3cc(N4CCCC4)nc(N4CCCC4)n3)c(=O)c2=O)cc1
Solution: 224 to 226 °C

Problem: Please look up its melting point: Cl.O=c1c(NCCNc2cc(N3CCCC3)nc(N3CCCC3)n2)c(Nc2ccc(Cl)cc2)c1=O
Solution: > 370 °C

New cases:
Problem: # get_value(readout='melting point', item= O=c1c(NCCNc2cc(N3CCCC3)nc(N3CCCC3)n2)c(NCc2ccc(Cl)cc2)c1=O )
Solution: 246 to 248 °C

Problem: For the molecule shown here, O=S(=O)(O)O.O=c1c(NCCNc2cc(N3CCCC3)nc(N3CCCC3)n2)c(Nc2ccc(Cl)cc2)c1=O , give the reported melting point.
Solution: 263 to 266 °C

Problem: Can you look up the measured melting point of CCCCNc1c(NCCNc2cc(N3CCCC3)nc(N3CCCC3)n2)c(=O)c1=O for me?
Solution: 246 to 248 °C

###

Items are presented alongside their recorded melting point.

Completed entries (count: 4):
Problem: Look up melting point: CC(C)(C)OC(=O)NCCc1ccc(Nc2c(NCCNc3cc(N4CCCC4)nc(N4CCCC4)n3)c(=O)c2=O)cc1 [Example 29]
Solution: 216 to 218 °C

Problem: Returns the measured melting point for the input compound. Input: O=c1c(NCCNc2cc(N3CCCC3)nc(N3CCCC3)n2)c(Nc2ccc(C3CCCCC3)cc2)c1=O [Example 23]
Solution: 218 to 220 °C

Problem: # lookup: melting point of COc1ccc(Nc2c(NCCNc3cc(N4CCCC4)nc(N4CCCC4)n3)c(=O)c2=O)cc1 [Example 18]
Solution: 235 to 237 °C

Problem: Please look up its melting point: O=P(O)(O)O.O=c1c(NCCNc2cc(N3CCCC3)nc(N3CCCC3)n2)c(Nc2ccc(Cl)cc2)c1=O [Example 9c]
Solution: 275 to 278 °C

Next:
Problem: Suppose we examine the compound COc1c(NCCN(C)CCNc2cc(N3CCCC3)nc(N3CCCC3)n2)c(=O)c1=O [Example 6] ; what melting point value has been reported?
Solution: 132 to 134 °C

Problem: Consider the compound shown here: O=c1c(NCCNc2cc(N3CCCC3)nc(N3CCCC3)n2)c(Nc2ccc(O)cc2)c1=O [Example 27] What is its recorded melting point?
Solution: > 260 °C

Problem: Entry O=c1c(NCCNc2cc(N3CCCC3)nc(N3CCCC3)n2)c(Nc2cccc(Cl)c2)c1=O [Example 17] : reported melting point = ?
Solution: 209 to 211 °C
